B1: glmS ribozyme (parent)
chain: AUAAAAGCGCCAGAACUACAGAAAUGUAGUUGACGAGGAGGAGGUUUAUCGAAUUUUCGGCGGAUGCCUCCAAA

variants of: B1; assay: self-cleavage kobs at 640 uM GlcN6P; higher = faster cleavage; RNA array; conditions: with glucosamine-6-phosphate
This sample holds only a part of the variants without activity.
READOUT NAME: self-cleavage kobs at 640 uM GlcN6P

Before answering, review these 3 worked examples.
U30G A42U C50A G60U : < 1e-05 s⁻¹
A64U C68A : < 1e-05 s⁻¹
C16U A48U G62U : < 1e-05 s⁻¹

Request: If you can, please state the reported self-cleavage kobs at 640 uM GlcN6P value of C10A C11G .
Result: < 1e-05 s⁻¹

Request: If you can, please state the reported self-cleavage kobs at 640 uM GlcN6P value of C10U A39C G41A U46A .
Result: < 1e-05 s⁻¹

Request: If you can, please state the reported self-cleavage kobs at 640 uM GlcN6P value of G7U A14U .
Result: < 1e-05 s⁻¹

Request: If you can, please state the reported self-cleavage kobs at 640 uM GlcN6P value of G29A G60A .
Result: < 1e-05 s⁻¹

Request: If you can, please state the reported self-cleavage kobs at 640 uM GlcN6P value of G40C A48C .
Result: < 1e-05 s⁻¹
